test system: hepatitis virus C (HCV) genotype 1b; experiment: HCV subgenomic replicon assay (RHEPTAQ), genotype 1b; assay type: cell-based; conditions: RHEPTAQ replicon, genotype 1b; read-out: EC90(1b)
measuredProperty: EC90 (nM)
Number in nM, nothing else.

Some solved entries appear below for comparison.
compound: C[C@@]1(O)[C@@H]2OP(=O)(OC3CSSC[C@@H]3OCc3ccccc3)OCC2O[C@H]1n1ccc(=O)[nH]c1=O (single isomer, unassigned) [drawing 109 isomer 3 and 4]
EC90 / nM: 783

compound: C[C@@]1(O)[C@@H]2OP(=O)(OC3CSSC[C@@H]3OCc3ccccc3)OCC2O[C@H]1n1ccc(=O)[nH]c1=O (single isomer, unassigned) [drawing 109 isomer 1]
EC90 / nM: 383

compound: COCCOCCOCCO[C@H]1CSSCC1OP1(=O)OCC2O[C@@H](n3ccc(=O)[nH]c3=O)[C@](C)(O)[C@@H]2O1 (single isomer, unassigned) [drawing 111 isomer 3 and 4]
EC90 / nM: 12000

Please find the next compound below.
Give hepatitis virus C (HCV) genotype 1b EC90 for C[C@@]1(O)[C@@H]2OP(=O)(OC3CSSC[C@@H]3OCc3ccccc3)OCC2O[C@H]1n1ccc(=O)[nH]c1=O (single isomer, unassigned) [drawing 109 isomer 2]
245

---

test system: hepatitis virus C (HCV) genotype 1b; test: HCV subgenomic replicon assay (RHEPTAQ), genotype 1b; format: cell-based; conditions: Hepatitis C virus, Table 4, genotype 1b; read-out: Replicon: EC50 (1b)
Listing: EC50 of selected molecules
Number in nM, nothing else.

molecule: C[C@@]1(F)[C@@H]2OP(=O)(OC3CSSC[C@@H]3OCc3ccccc3)OCC2O[C@H]1n1ccc(=O)[nH]c1=O (some centres unmarked)
EC50 [nM]: 107

Please find the next molecule below.
// EC50 lookup, key: C[C@@]1(O)[C@@H]2OP(=O)(OC3CSSC[C@@H]3OCc3ccccc3)OCC2O[C@H]1n1ccc(=O)[nH]c1=O (single isomer, unassigned) [drawing 112]
110

---

Listing: CC50 of selected molecules
assay: Tox: EdU/CellCount CC50; format: cell-based; conditions: CellCount readout; read-out: Tox: CellCount CC50
Number in µM, nothing else.

molecule: C[C@@]1(O)[C@@H]2OP(=O)(OC3CSSC[C@@H]3OCc3ccccc3)OCC2O[C@H]1n1ccc(=O)[nH]c1=O (single isomer, unassigned) [drawing 112]
measuredProperty: CC50
observedMeasurement: 8.5

Please find the next molecule below.
// CC50 lookup, key: C[C@@]1(F)[C@@H]2OP(=O)(OC3CSSC[C@@H]3OCc3ccccc3)OCC2O[C@H]1n1ccc(=O)[nH]c1=O (some centres unmarked)
85

---

assay: CTG LD50 (cytotoxicity)
measuredProperty: CTG LD50

Some solved entries appear below for comparison.
compound: COc1ccccc1OP(=O)(CO[C@H](C)Cn1cnc2c(N)ncnc21)OC1CSSC[C@@H]1OCc1ccccc1 (stereo partly shown) [Entry 12]
observedMeasurement: >39.78 µM
--
compound: COc1ccc(OP(=O)(CO[C@H](C)Cn2cnc3c(N)ncnc32)OC2CSSC[C@@H]2OCc2ccccc2)cc1 (stereo partly shown) [Entry 11]
observedMeasurement: >42.02 µM
--
compound: Cc1ccc(OP(=O)(CO[C@H](C)Cn2cnc3c(N)ncnc32)OC2CSSC[C@@H]2OCc2ccccc2)cc1 (stereo partly shown) [Entry 9]
observedMeasurement: >42.02 µM

// CTG LD50 lookup, key: C[C@H](Cn1cnc2c(N)ncnc21)OCP(=O)(Oc1ccccc1)OC1CSSC[C@@H]1OCc1ccccc1 (stereo partly shown) [Entry 1]
>8.403 µM

---

experiment: CTG LD50 (cytotoxicity)
Listing: CTG LD50 of selected compounds

compound: C[C@H](Cn1cnc2c(N)ncnc21)OCP(=O)(Oc1ccccc1)OC1CSSC[C@H]1OCc1ccccc1 (stereo partly shown)
CTG LD50: >8.403 µM
//
compound: C[C@H](Cn1cnc2c(N)ncnc21)OCP(=O)(Oc1cccc(Cl)c1)OC1CSSC[C@@H]1OCc1ccccc1 (stereo partly shown)
CTG LD50: >8.403 µM
//
compound: COc1cccc(OP(=O)(CO[C@H](C)Cn2cnc3c(N)ncnc32)OC2CSSC[C@@H]2OCc2ccccc2)c1 (stereo partly shown)
CTG LD50: >8.403 µM

// CTG LD50 lookup, key: C[C@H](Cn1cnc2c(N)ncnc21)OCP(=O)(Oc1cccc(F)c1)OC1CSSC[C@@H]1OCc1ccccc1 (stereo partly shown)
>42.02 µM

Try the compound Cc1cccc(OP(=O)(CO[C@H](C)Cn2cnc3c(N)ncnc32)OC2CSSC[C@@H]2OCc2ccccc2)c1 (stereo partly shown)
>42.02 µM

Try the compound Cc1ccccc1OP(=O)(CO[C@H](C)Cn1cnc2c(N)ncnc21)OC1CSSC[C@@H]1OCc1ccccc1 (stereo partly shown)
>42.02 µM

Try the compound C[C@H](Cn1cnc2c(N)ncnc21)OCP(=O)(Oc1ccccc1Cl)OC1CSSC[C@@H]1OCc1ccccc1 (stereo partly shown)
>8.403 µM

Try the compound C[C@H](Cn1cnc2c(N)ncnc21)OCP(=O)(Oc1ccc(Cl)cc1)OC1CSSC[C@@H]1OCc1ccccc1 (stereo partly shown)
>8.403 µM

Try the compound C[C@H](Cn1cnc2c(N)ncnc21)OCP(=O)(Oc1ccccc1F)OC1CSSC[C@@H]1OCc1ccccc1 (stereo partly shown)
>8.403 µM

Try the compound C[C@H](Cn1cnc2c(N)ncnc21)OCP(=O)(Oc1ccc(F)cc1)OC1CSSC[C@@H]1OCc1ccccc1 (stereo partly shown)
>8.403 µM
